Consider the following compounds and their measured IC50 readings.
Tested on: MDA-MB-231 human breast cancer cells
Assay: Cell proliferation assay (CellTiter-Glo, 72 hours treatment)
Format: cell-based
Conditions: Homo sapiens; MDA-MB-231 cells, 72 hours at 37° C., CellTiter-Glo; read-out: MDA-MB-231 cell proliferation assay (IC50)

{"columns": ["COMPOUND", "IC50"],
 "data": [
  ["COc1cncc2c1[C@]1(O)[C@@H](CNC(C)(C)C)[C@H](CO)[C@@H](c3ccccc3)[C@]1(c1ccc(Br)cc1)O2 (racemic) [226F]", "< 100 nM"],
  ["COc1cncc2c1[C@]1(O)[C@H](O)[C@H](C(=O)N(C)Cc3cccnc3)[C@@H](c3ccccc3)[C@]1(c1ccc(Br)cc1)O2 (racemic) [277F]", "< 100 nM"],
  ["CN(C)C(=O)[C@H]1[C@@H](O)[C@@]2(O)c3nn(C)c(Cl)c3O[C@@]2(c2ccc(C#N)cc2)[C@@H]1c1ccccc1 (racemic) [36F]", "> 1000 nM"],
  ["COc1cncc2c1[C@]1(O)[C@H](O)[C@H](N)[C@@H](c3ccccc3)[C@]1(c1ccc(C(F)F)cc1)O2 (racemic) [270F]", "100 to 1000 nM"],
  ["COc1cncc2c1[C@]1(O)[C@H](O)[C@H](S(C)(=O)=O)[C@@H](c3ccccc3)[C@]1(c1ccc(C#N)cc1)O2 (single isomer, unassigned) [102F]", "100 to 1000 nM"],
  ["COc1nc(C#N)cc2c1[C@]1(O)[C@H](O)[C@H](CN3CCC(F)(F)CC3)[C@@H](c3ccccc3)[C@]1(c1ccc(C#N)cc1)O2 (racemic) [157Fc]", "100 to 1000 nM"],
  ["COc1cncc2c1[C@]1(O)[C@H](O)[C@H](C(=O)N(C)C)[C@@H](c3ccccc3)[C@]1(c1ccc(C#N)cc1)O2 (single isomer, unassigned) [64F]", "< 100 nM"],
  ["CC(C)n1cc2c(n1)[C@]1(O)[C@H](O)[C@H](C(=O)N(C)C)[C@@H](c3ccccc3)[C@]1(c1ccc(C#N)cc1)O2 (racemic) [80F]", "> 1000 nM"],
  ["CN(C)C(=O)[C@H]1[C@@H](O)[C@@]2(O)c3nn(C)cc3O[C@@]2(c2ccc(C#N)cc2)[C@@H]1c1ccccc1 (single isomer, unassigned) [23F]", "> 1000 nM"],
  ["COc1nc(C#N)cc2c1[C@]1(O)[C@H](O)[C@H](CN3CC(F)C3)[C@@H](c3ccccc3)[C@]1(c1ccc(C#N)cc1)O2 (racemic) [211Fa]", "< 100 nM"],
  ["COc1cncc2c1[C@]1(O)[C@H](O)[C@H](C(=O)N3CC4CC(C3)O4)[C@@H](c3ccccc3)[C@]1(c1ccc(Br)cc1)O2 (racemic) [273F]", "< 100 nM"],
  ["COc1nc(Cl)cc2c1[C@]1(O)[C@H](O)[C@H](C(=O)N3CC(C(F)F)C3)[C@@H](c3ccccc3)[C@]1(c1ccc(Br)cc1)O2 (racemic) [215F]", "< 100 nM"],
  ["CN(C)C(=O)[C@H]1[C@@H](O)[C@@]2(O)c3ncc(Cl)cc3O[C@@]2(c2ccc(C#N)cc2)[C@@H]1c1ccccc1 (single isomer, unassigned) [3F]", "< 100 nM"],
  ["COc1cncc2c1[C@]1(O)[C@H](O)[C@H](CN3CCN(C)CC3)[C@@H](c3ccccc3)[C@]1(c1ccc(C#N)cc1)O2 (racemic) [68F]", "100 to 1000 nM"],
  ["COc1ccc2c(n1)O[C@@]1(c3ccc(C#N)cc3)[C@H](c3ccccc3)[C@@H](C(=O)N(C)C)[C@@H](O)[C@@]21O (racemic) [15F]", "> 1000 nM"],
  ["COc1nc(Cl)cc2c1[C@]1(O)[C@H](O)[C@H](CN)[C@@H](c3ccccc3)[C@]1(c1ccc(C#N)cc1)O2 (racemic) [294F]", "< 100 nM"],
  ["CN(C)C(=O)[C@@H]1[C@@H](c2ccccc2)[C@]2(c3ccc(C#N)cc3)Oc3cc(Cl)cnc3[C@]2(O)[C@@]1(C)O (racemic) [33Fb]", "> 1000 nM"],
  ["COc1cncc2c1[C@]1(O)[C@H](O)[C@H](CN)[C@@H](c3ccccc3)[C@]1(c1ccc(C#N)cc1)O2 (racemic) [65F]", "100 to 1000 nM"],
  ["CS(=O)(=O)[C@H]1[C@@H](O)[C@@]2(O)c3ncc(Cl)cc3O[C@@]2(c2ccc(C#N)cc2)[C@@H]1c1ccccc1 (racemic) [85F]", "> 1000 nM"],
  ["COc1cncc2c1[C@]1(O)[C@H](O)[C@H](C(=O)N(C)Cc3ccnn3C)[C@@H](c3ccccc3)[C@]1(c1ccc(Br)cc1)O2 (racemic) [249F]", "< 100 nM"],
  ["CN(C)C(=O)[C@H]1[C@@H](O)[C@@]2(O)c3c(C#N)cncc3O[C@@]2(c2ccc(C#N)cc2)[C@@H]1c1ccccc1 (racemic) [96F]", "> 1000 nM"],
  ["COCCNC(=O)[C@H]1[C@@H](O)[C@@]2(O)c3c(OC)cncc3O[C@@]2(c2ccc(Br)cc2)[C@@H]1c1ccccc1 (racemic) [262F]", "< 100 nM"],
  ["COc1nc(C#N)cc2c1[C@]1(O)[C@H](O)[C@H](CN3CCC(F)(F)C3)[C@@H](c3ccccc3)[C@]1(c1ccc(C#N)cc1)O2 (racemic) [153F]", "100 to 1000 nM"],
  ["O=C1N[C@H]2[C@@H](O1)[C@@]1(O)c3ncc(Cl)cc3O[C@@]1(c1ccc(Br)cc1)[C@@H]2c1ccccc1 (racemic) [53F]", "< 100 nM"]
]}
